B1: C9orf9 (parent)
chain: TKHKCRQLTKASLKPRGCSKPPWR

# Variants of: B1
# assay_procedure: protein stability index of a GFP-peptide fusion (GPS, HEK-293T) (PSI 1-6); higher = more stable;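 further: lentivirally expressed fusions sorted by FACS into six bins by GFP to DsRed ratio, PSI derived from sequencing read proportions per bin multiplied by bin number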
# assay_setup: c terminus: a fixed tail appended
Reported protein stability index is given for each of the following variants.
// response body must contain only the number

1) P21T: 2.56
2) R6N: 2.78
3) P22G: 3.09
4) P15I: 2.66
5) C18P: 3.32

Next item in the queue.
Using the record for "C5D" , report its protein stability index.
3.56

Origin of measurements: the supplement of paper PMC10567573
